# TEST_SYSTEM: eOD-GT8 (engineered outer domain germline-targeting version 8), monomer (HIV-1 gp120 engineered outer domain, …)
RESULT_TYPE: binding result

G001_gp1_V10_VRC01c_2021-0132 (antibody, V domains shown) VH: QVQLVQSGAEVKKPGASVKVSCQASGYTFTAYHMHWVRQAPGQGLEWMGWINPTSGGTNYAQKFQGRVTMTRDTSITTAYMDLTRLRSDDTAVYYCARHRGGWFFDLWGRGTLVTVSS VL: DIQMTQSPSSLSASVGDRVTITCQASQDISNYLNWYQQKPGKAPNLLIYDASNLEAGVPSRFSGSGSGTDFTFTISSLQPEDIATYYCQQYETFGQGTKLEIR = binds
G001_gp1_V10_VRC01c_2021-0121 (antibody, V domains shown) VH: QVQLVQSGAEVKKPGASVKVSCKASGYSFTGYYIHWVRQVPGQGLEWMGWINPNSGGTNYAQEFQDWVTMTRDTSISTAYMELSRLRSDDTAVYYCARHKPSSRFYFDYWGQGTLVTVSS VL: DIQMTQSPSTLSASVGDRVTITCRASQSISSWLAWYQQKPGKAPKFLLMYDASSLESGVPSRFSGSGSGTEFTLTISSLQPDDFATYYCQQYETFGQGTKVEIK = binds
